Data provenance is patent EP0769966B1.

experiment: in vivo; type: in vivo, male Sprague-Dawley rats; settings: rat, in vivo, iv, Tissue distribution, Blood
readout.type: tissue uptake at 1 h (%ID/g)
Use %ID/g as the unit, but write only the number.

If you can, please state the reported tissue uptake at 1 h value of O=C1N[C@H]2[C@H](CS[C@H]2CCCCC[18F])N1 .
0.3

If you can, please state the reported tissue uptake at 1 h value of O=C(CCCC[C@@H]1SC[C@@H]2NC(=O)N[C@@H]21)NCCC[18F] .
0.14
